Attribution: patent EP1215202A1

# maps each entry to its AUC(0-t) at 24 h
EXPERIMENT SUMMARY: in vivo
Parameters: species or system Hunde (Beagle)
CONDITION INFO: dog, iv, 5 mg/kg
State the answer as a number, implicitly in ng·h/mL.

ENTRY SMILES: CCN1CCN(c2cc3c(cc2F)c(=O)c(C(=O)O)cn3C2CC2)CC1
QUANTITY: AUC(0-t) at 24 h
RECORDED RESULT: 10400

Query compound follows.
Supply AUC(0-t) at 24 h value. Item: N#Cc1c(N2C[C@@H]3CCCN[C@@H]3C2)c(F)cc2c(=O)c(C(=O)O)cn(C3CC3)c12
20000
